- System: Mycobacterium tuberculosis
- MEASUREMENT NOTES: Cornell M. t heat shock assay; further: in the data most compounds retested in dose-response had high values
- Format: functional, organism-based
- Design: dose or concentration left out as unconfirmed
About 950 (1.4%) of roughly 69,000 compounds showed an effect of 50% or more. The sample holds strong results, similar compounds and a random draw of the others, so the mix is not that of the screen.

{"columns": ["COMPOUND", "Percent Effect (%)"],
 "data": [
  ["CC(C)CCN1C[C@H]2C[C@H](C(=O)Nc3ccccc3)[C@@H](C1)O2.O=C(O)C(F)(F)F", -19.48],
  ["CNC(=O)c1cn2cc(-c3ccccc3Cl)n(CC3CC3)c(=O)c2n1", 12.71],
  ["Cc1cc(C)n(CC2CCCCN2CC(=O)Nc2nncs2)n1 (stereo not given)", 69.77],
  ["O=C(O)C(F)(F)F.O=C(c1ccsc1)N1C[C@H]2CCC[C@@]2(COCc2cccnc2)C1", -16.41],
  ["CN(C)C(=O)c1cn2cc(-c3ccccc3Cl)n(CC3CC3)c(=O)c2n1", 22.72],
  ["Cc1cccc(N2CC[C@@H]3CN(C(=O)c4ccco4)CCO[C@@H]3C2)n1.O=C(O)C(F)(F)F", 6.087],
  ["Cc1cc(C)n(CC2CCCN2CC(=O)Nc2nncs2)n1 (stereo not given)", -43.1],
  ["CCC(=O)N1CCC2(CC1)c1nc[nH]c1CCN2S(C)(=O)=O", -7.001],
  ["CCNC(=O)c1cn2cc(-c3ccccc3Cl)n(CC3CC3)c(=O)c2n1", 99.63],
  ["Cc1cc(C)n(CC2CCCCN2CC(=O)Nc2nnc(C)s2)n1 (stereo not given)", 10.12]
]}
